Test system: RXF 393 renal
runDescription: NCI-60 one-dose screen, 48 h
conditions: 10 µM unless noted
This is part of a sample that, as a whole, favours compounds with a hit. Of some 83,000 tested, about 20% had one in any assay. Calls of active or inactive are those of the source. The calls were made as follows: active = growth percent below 10; inactive = the rest.
Outcomes: active, inactive

compound	studySystem	assignedLabel
CC(=O)N(C)c1ccc(Nc2cc(C)[nH]c3ccc4ncnc4c23)cc1	RXF 393 renal	inactive
COc1ccc(OC)c(Nc2nc(-c3c(C)nc4sccn34)cs2)c1	RXF 393 renal	inactive
Cc1cc(-c2nnc(/C=C/c3ccc4c(c3)OCO4)o2)n[nH]1	RXF 393 renal	inactive
CCC1CCc2nc3sc(C(=O)Nc4cccc(F)c4)c(N)c3cc2C1 (stereo not drawn)	RXF 393 renal	inactive
COC(=O)C(CCC(=O)CCl)N1C(=O)c2ccccc2C1=O (stereo not drawn)	RXF 393 renal	inactive
O=c1c2sc3ccccc3c2nnn1-c1ccc(F)c(Cl)c1	RXF 393 renal	inactive
C=C1NC(=O)C(C(C)CC)NC(=O)C2CSCC(NC(=O)CCC(=O)O)C(=O)NC(Cc3ccccc3)C(=O)NC(C)C(=O)NC(CC(C)CC)C(=O)NC(C(=O)NC(Cc3ccccc3)C(=O)N3CCCC3C(=O)N2)C(C)OC(=O)C(CO)NC(=O)C(C(O)COC)N(C)C(=O)C(C(C)C)NC(=O)C(CC(C)CC)NC1=O (stereo not drawn)	RXF 393 renal	inactive
O=C(CSc1ccc(Cl)cc1)Nc1ccc(-c2nc3ccccc3s2)c(Cl)c1	RXF 393 renal	inactive
COc1ccc(-c2nnc(SCC(=O)Nc3ccc(C(=O)/C=C/c4ccc(Cl)cc4)cc3)n2-c2ccccc2)cc1	RXF 393 renal	inactive
COc1cccc2nc(Nc3cccc(NC(=O)c4ccc(N5CCN(C)CC5)c(C(F)(F)F)c4)c3)ccc12	RXF 393 renal	active
CCOc1cccc(/C=N/NC(=O)c2ccc(Nc3ccnc(C(F)(F)F)c3)cc2)c1O	RXF 393 renal	inactive
CCCc1n(Cc2ccc3ccccc3n2)cc[n+]1Cc1ccc2ccccc2c1	RXF 393 renal	active
CC1(C)CC[C@]2(C(=O)N3CCNCC3)CC[C@]3(C)C(=CC[C@@H]4[C@@]5(C)CCC(=O)C(C)(C)[C@@H]5CC[C@]43C)[C@@H]2C1	RXF 393 renal	inactive
Oc1ccc(Nc2ncnc3c2sc2ncccc23)cc1	RXF 393 renal	inactive
O=C1/C(=C\c2cccn2Cc2ccc(F)cc2)c2ccccc2N1c1c(Cl)cccc1Cl	RXF 393 renal	inactive
CCCCCCCCCCC(C(O)c1ccccc1)N1CCCCC1 (stereo not drawn)	RXF 393 renal	active
Cc1n(Cc2ccc3ccccc3n2)cc[n+]1Cc1ccc2ccccc2c1	RXF 393 renal	active
CC(C)(C)NC(=O)C(OC(=O)C1CCc2cc(F)ccc2O1)c1ccccc1Cl (stereo not drawn)	RXF 393 renal	inactive
N#Cc1c(N)c(C(=O)c2ccc3c(c2)OCCO3)n2c1CCCC2	RXF 393 renal	inactive
O=C(/C=C/c1cc([N+](=O)[O-])ccc1Cl)c1ccccc1	RXF 393 renal	inactive
COc1cccc2nc(Nc3cccc(NC(=O)c4cc(N5CCOCC5)cc(C(F)(F)F)c4)c3)ccc12	RXF 393 renal	inactive
Clc1ncnc2scc(C3COc4ccccc4O3)c12 (stereo not drawn)	RXF 393 renal	inactive
COc1ccc(C2CC(c3cccc(Nc4ccnc5cc(Cl)ccc45)c3)=NN2c2ccc(Cl)cc2)cc1 (stereo not drawn)	RXF 393 renal	inactive
Nc1nc(N)c2cc(CNc3ccc(Cl)c(Cl)c3)ccc2n1	RXF 393 renal	inactive
CCCN(CCC)CC(O)COc1ccccc1C(=O)Nc1ccccc1 (stereo not drawn)	RXF 393 renal	inactive
Clc1cc(Br)ccc1-c1ccc(CNCC2CCNCC2)o1	RXF 393 renal	inactive
COc1ccc(Nc2ncccc2C(=O)NCc2cn(Cc3cc(OC)cc(OC)c3)nn2)cc1	RXF 393 renal	inactive
C=CCn1c(C)nc2cc(Nc3nc(Nc4ccc5nc(C)n(CC=C)c5c4)nc4ccccc34)ccc21	RXF 393 renal	inactive
COc1ccc([C@@H]2[C@@H](Oc3ccccc3)C(=O)N2c2cc(OC)c(OC)c(OC)c2)cc1F	RXF 393 renal	active
O=C(NC1CC1)c1ccc(-c2nc3ccc4[nH]ncc4c3c3c2CCCC3)cc1	RXF 393 renal	active
CC(C)N1CCN(c2ccncc2S(=O)(=O)N2CCN(C)CC2)CC1	RXF 393 renal	inactive
CC(=O)OC1Oc2cc(C)c(C)cc2-c2oc(=O)c(-c3ccc(F)cc3)cc21 (stereo not drawn)	RXF 393 renal	active
NS(=O)(=O)c1ccc(N2N=C(c3ccc(Br)cc3)CC2c2cn(-c3ccccc3)nc2-c2ccc(Cl)cc2)cc1 (stereo not drawn)	RXF 393 renal	inactive
CCOc1ccc([C@@H]2[C@@H](Oc3ccccc3)C(=O)N2c2cc(OC)c(OC)c(OC)c2)cc1	RXF 393 renal	inactive
COc1cc(NCCCCC(C)N)c2nccc(C)c2c1 (stereo not drawn)	RXF 393 renal	inactive
C=CCn1c(SCC(=O)Nc2ccc(C(=O)/C=C/c3ccccc3)cc2)nnc1-c1ccc(OC)c(OC)c1	RXF 393 renal	inactive
CCOC(=O)C1=C(C)NC(SCc2nnc(-c3ccc(Cl)cc3)o2)=NC1c1ccc(Br)cc1 (stereo not drawn)	RXF 393 renal	inactive
CC1=C(C(=O)Nc2ccc(F)cc2)C(c2ccc(C)cc2)C2=C(CC(C)(C)CC2=O)N1 (stereo not drawn)	RXF 393 renal	inactive

###

System: NCI-H322M lung
runDescription: NCI-60 one-dose screen, 48 h (100 = growth as untreated, 0 = no growth, -100 = all killed)
conditions: 10 µM unless noted
The panel holds about 83,000 compounds, 20% with a hit somewhere; the sample as a whole holds those more often.
We use 80% as the dividing line for growth: on or above the line is yes (1), below is no (0).

compoundSmiles	assignedLabel
FC1(F)CCN(Cc2c[nH]c3cc(Cl)ccc23)C[C@H]1CCc1ccccc1	yes (1)
CCNC(=S)N(Cc1ccccc1)Cc1ccccc1	yes (1)
CC(=O)N[C@@H](CCC(N)=O)C(=O)O	yes (1)
COc1ccc(/C=C(/C(=O)N2CCN(c3ccccc3)CC2)c2cc(OC)c(OC)c(OC)c2)cc1O	no (0)
O=C(CS)OCC(COC(=O)CS)(COC(=O)CS)COC(=O)CS	no (0)

###

Test system: DU-145 prostate
runDescription: NCI-60 one-dose screen, 48 h
conditions: 10 µM unless noted
The panel holds about 83,000 compounds, 20% with a hit somewhere; the sample as a whole holds those more often. Activity calls are given as the source filed them. Rule for the calls: active = growth percent below 10; inactive = the rest.
Outcomes: t for active, f for inactive

compound	assignedLabel
COC(=O)C1(C)COP(=O)(NC23CC4CC(CC(C4)C2)C3)OC1 (centres undefined)	f
CCN(CC)Cc1cc(Nc2ccnc3cc(Cl)ccc23)cc(-c2ccc(Cl)cc2)c1O	f
F	f
N=C(N)c1ccc(-c2ccc(-c3cc(Cl)cc(Cl)c3)o2)nc1	t
Oc1c(C(c2ccc(F)cc2)N2CCCCC2)ccc2cncnc12 (centres undefined)	f
CCCCn1c(C)nc2ccc(Nc3nc(Cl)nc4nc[nH]c34)cc21	f
COc1c(C(=O)/C=C/c2ccc(C)o2)c(O)cc2occc12	f
COc1c(B(O)O)cccc1-c1nc2ccc3[nH]ncc3c2c2c1CCCC2	f
C#CC[C@@H]1C[C@]2(C)[C@H]3CC[C@@H]4[C@H]5C(C(=C)C)CC[C@]5(C(=O)NCCCCN)CC[C@@]4(C)[C@]3(C)CC[C@H]2C(C)(C)[C@H]1OC(C)=O (some centres undefined)	t
CCCCn1c(-c2ccc(F)cc2)nc2cc(OC)c(OC)cc2c1=O	f
NS(=O)(=O)c1ccc(N2N=C(c3ccc(Br)cc3)CC2c2cn(-c3ccccc3)nc2-c2ccc(Cl)cc2)cc1 (centres undefined)	f
CN(C)c1ccc(C(c2ccccc2)c2ccc(N(C)C)cc2)cc1	f
Oc1[nH]c2ccc(Cl)cc2c1/C=c1/ccc2c(c1)N=C(c1ccc(F)cc1)N=2	f
Nc1nc2c(c3ncccc13)C(c1ccccc1)Cc1ncccc1-2 (centres undefined)	f
Fc1ccc2nc(-c3ccc(-c4noc(-c5ccc(Cl)cc5)n4)cc3)[nH]c2c1	f
COc1cc2nccc(Oc3ccc(NC(=O)C4(C(=O)Nc5ccc(F)cc5)CC4)cc3)c2cc1Oc1ccc(N)cn1	f
CCOC(CN1CCN(CC(C)C(=O)c2ccccc2)CC1)c1ccccc1 (centres undefined)	f
CSC1=NC(=Nc2c(C)cccc2C)C2(CCC(C(C)(C)C)CC2)N1c1ccc(Cl)cc1 (centres undefined)	f
CC(=O)c1ccc(Nc2nc(Cl)nc(Oc3c(Cl)cccc3Cl)n2)cc1	f
CCN(CC)CCNc1c(C)cc(CO)c(Cl)c1C	f
CC1C2CCC(C2)C1COCCOCCO (centres undefined)	f
C=CCn1c(SCC(=O)Nc2ccc(/C(C)=N\O)cc2)nnc1-c1cc(-c2ccccc2)nc2ccccc12	f
COc1ccc(/C(=C\c2cc(OC)c(OC)c(OC)c2)C(=O)Nc2nc3ccc(Cl)cc3s2)cc1	f
Cc1cc(C)cc(CCCCCCCCCCCCCCCCCC(=O)O)c1	f
Cc1n(Cc2ccc3ccccc3n2)cc[n+]1Cc1ccc2ccccc2c1	f
CNC(=O)c1cc(Oc2ccc(NC(=O)c3nc(S(C)(=O)=O)n(C)c3-c3ccc(F)cc3)cc2)ccn1	f
COc1cc(-c2csc(NC(=O)Nc3cccc(C(F)(F)F)c3)n2)cc(OC)c1OC	f
O=C1/C(=C\c2cccn2C(=O)c2ccccc2)c2ccccc2N1c1c(Cl)cccc1Cl	f
CCCCCCCCCCCCCCCCS(=O)(=O)Nc1cc(C(=O)NN)cc(C(=O)NN)c1	f
O=C(CS)OCC(COC(=O)CS)(COC(=O)CS)COC(=O)CS	f
NC(N)=N/N=C/c1ccccc1	f
CC(=O)O[C@H]1[C@H](CC#CC#CC[C@@H]2C[C@]3(C)[C@H]4CC=C5[C@H]6[C@@H](C)[C@H](C)CC[C@]6(C(=O)NCCN(CCN)CCN)CC[C@@]5(C)[C@]4(C)CC[C@H]3C(C)(C)[C@H]2OC(C)=O)C[C@]2(C)[C@H]3CC=C4[C@H]5[C@@H](C)[C@H](C)CC[C@]5(C(=O)NCCN(CCN)CCN)CC[C@@]4(C)[C@]3(C)CC[C@H]2C1(C)C	f
Cc1ccc2oc(=O)cc(-c3nc4ccc([N+](=O)[O-])cc4[nH]3)c2c1	f
N#Cc1ccc(NC(=O)Nc2nc3ccc(OC(F)(F)F)cc3s2)cc1	f
NC(N)=N/N=C\c1cccc(OCc2ccccc2)c1	f
O=C(Nc1ccccc1Cl)Oc1ccc2ccccc2c1	f
C=CCn1c(SCC(=O)Nc2ccc(C(=O)/C=C/c3ccccc3)cc2)nnc1-c1ccc(OC)c(OC)c1	f
COc1ccc(C2CC(c3ccc(Nc4ccnc5cc(Cl)ccc45)cc3)=NN2c2ccccc2)cc1 (centres undefined)	f
CNCCCNc1ccnc2cc(Cl)ccc12	t
